Tested on: Staphylococcus epidermidis KCTC 1917
VALUE TYPE: MIC (µM)
Only the number, expressed in µM, is required.

Request: Input "CC[C@H](C)[C@H](NC(=O)[C@H](CCCN=C(N)N)NC(=O)[C@H](CC(C)C)NC(=O)[C@H](CC(C)C)NC(=O)[C@@H](N)CCCN=C(N)N)C(=O)N[C@H](C(=O)N[C@H](C(=O)N[C@H](C(=O)N[C@@H](CCCN=C(N)N)C(=O)N[C@H](C(=O)N[C@@H](CC(C)C)C(=O)N[C@@H](CCCN=C(N)N)C(N)=O)C(C)C)[C@@H](C)CC)C(C)C)C(C)C" , output reported MIC.
Response: 8.3

Request: Input "CC[C@H](C)[C@H](N)C(=O)N[C@@H](CC(C)C)C(=O)N1CCC[C@H]1C(=O)N[C@@H](Cc1c[nH]c2ccccc12)C(=O)N[C@@H](CCCCN)C(=O)N[C@@H](CCCCN)C(=O)N1CCC[C@H]1C(=O)N[C@@H](CCCCN)C(=O)N[C@@H](CCCCN)C(=O)N1CCC[C@H]1C(=O)N[C@@H](Cc1c[nH]c2ccccc12)C(=O)N[C@@H](CCCN=C(N)N)C(=O)N[C@@H](CCCN=C(N)N)C(N)=O" , output reported MIC.
Response: 2.88

Request: Input "C[C@@H](O)[C@H](NC(=O)[C@H](CCCCN)NC(=O)[C@H](Cc1c[nH]c2ccccc12)NC(=O)[C@H](Cc1c[nH]c2ccccc12)NC(=O)[C@@H](NC(=O)[C@H](CCCCN)NC(=O)[C@@H](N)CCCCN)[C@@H](C)O)C(=O)N[C@@H](Cc1c[nH]c2ccccc12)C(=O)N[C@@H](Cc1c[nH]c2ccccc12)C(=O)N[C@H](C(=O)N[C@@H](CCCCN)C(=O)N[C@@H](Cc1c[nH]c2ccccc12)C(=O)N[C@@H](CCCCN)C(=O)N[C@@H](CCCCN)C(=O)O)[C@@H](C)O" , output reported MIC.
Response: 2

Request: Input "CC[C@H](C)[C@H](NC(=O)[C@H](Cc1c[nH]c2ccccc12)NC(=O)[C@H](CC(C)C)NC(=O)[C@@H](N)CC(C)C)C(=O)N[C@@H](C)C(=O)N[C@@H](CC(C)C)C(=O)N[C@@H](CCCN=C(N)N)C(=O)N[C@@H](CCCCN)C(=O)N[C@@H](CCCCN)C(N)=O" , output reported MIC.
Response: 3.51
